# PROCEDURE_SUMMARY: NeuroPK: plasma and brain levels after i.v. administration
# Type: in vivo, male C57BL/6 mice
# APPLIED_CONDITIONS: male, C57BL/6, brain/plasma, iv; mouse, i.v. 10 mg/kg, 2 h
QUANTITY_NAME: Kp at 2 h
Response field accepts a number only; no unit should be typed.

Task: Any idea what Kp at 2 h was measured for CN(C(=O)c1cc(N)cc(Nc2cccc3c2OCO3)n1)c1ccccc1 [Compound 3] ?
Result: 3.29
